target: h-NTPDase2 (Homo sapiens); construct: made in house; host or cells: COS-7 cells, transient transfection; crude protein extract after sonication; assay: h-NTPDase2 inhibition, malachite green assay; type: biochemical; details: ATP 100 µM substrate, mean ± SEM of three independent experiments
Sequence (Q9Y5L3 whole entry): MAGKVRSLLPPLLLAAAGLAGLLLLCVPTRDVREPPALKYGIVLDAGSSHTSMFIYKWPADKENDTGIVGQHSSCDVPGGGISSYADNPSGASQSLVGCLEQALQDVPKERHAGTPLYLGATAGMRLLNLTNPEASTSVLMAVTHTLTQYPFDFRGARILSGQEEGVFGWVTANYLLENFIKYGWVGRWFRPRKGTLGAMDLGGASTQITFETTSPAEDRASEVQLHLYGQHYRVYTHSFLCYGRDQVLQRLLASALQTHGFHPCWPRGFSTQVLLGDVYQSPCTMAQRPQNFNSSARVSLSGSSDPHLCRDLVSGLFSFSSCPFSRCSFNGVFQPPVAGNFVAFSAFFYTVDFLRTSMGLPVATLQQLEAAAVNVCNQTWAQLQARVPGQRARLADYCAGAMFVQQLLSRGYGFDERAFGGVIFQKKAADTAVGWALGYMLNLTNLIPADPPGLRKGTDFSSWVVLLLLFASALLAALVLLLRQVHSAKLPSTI
Overview of recorded IC50 for various molecules
measured parameter: IC50 (µM)

>>> observed_value("COc1ccc(OC)c(NC(=S)N/N=C2\\C(=O)Nc3ccccc32)c1 [8j]")
0.11
>>> observed_value("COc1ccc(NC(=S)NNC2=c3ccccc3=NC2=O)cc1 [8k]")
0.16
>>> observed_value("Cc1ccc(C(=O)Nc2ccc(S(=O)(=O)O)c3cc(S(=O)(=O)O)cc(S(=O)(=O)O)c23)cc1NC(=O)c1cccc(NC(=O)Nc2cccc(C(=O)Nc3cc(C(=O)Nc4ccc(S(=O)(=O)O)c5cc(S(=O)(=O)O)cc(S(=O)(=O)O)c45)ccc3C)c2)c1 [Suramin, reference compound]")
24.1
>>> observed_value("Cc1cccc(C)c1NC(=S)N/N=C1\\C(=O)Nc2ccccc21 [8i]")
0.41

----------
measured parameter: melting point

>>> observed_value("COc1ccc(OC)c(NC(=S)N/N=C2\\C(=O)Nc3ccccc32)c1")
"245 to 248 °C"
>>> observed_value("O=C1Nc2ccccc2/C1=N/NC(=S)Nc1c(F)cccc1F")
"243 to 244 °C"
>>> observed_value("CCNC(=S)N/N=C1\\C(=O)Nc2ccccc21")
"190 to 194 °C"
>>> observed_value("COc1cccc(NC(=S)N/N=C2\\C(=O)Nc3ccccc32)c1")
"220 to 224 °C"
>>> observed_value("O=C1Nc2ccccc2/C1=N/NC(=S)Nc1ccc(F)cc1")
"255 to 256 °C"
>>> observed_value("Cc1cccc(C)c1NC(=S)N/N=C1\\C(=O)Nc2ccccc21")
"250 to 252 °C"
>>> observed_value("O=C1Nc2ccccc2/C1=N/NC(=S)NCc1ccccc1")
"206 to 208 °C"
>>> observed_value("O=C1Nc2ccccc2/C1=N/NC(=S)Nc1cccc(Cl)c1")
"235 to 236 °C"
>>> observed_value("O=C1Nc2ccccc2/C1=N/NC(=S)Nc1ccc(Cl)cc1")
"240 to 244 °C"
>>> observed_value("O=C1Nc2ccccc2/C1=N/NC(=S)Nc1ccc([N+](=O)[O-])cc1")
"271 to 272 °C"

----------
biological target: m-NTPDase2 (Mus musculus, UniProt O55026); construct: made in house; host or cells: COS-7 cells, transient transfection; crude protein extract after sonication; assay: m-NTPDase2 inhibition, malachite green assay; assay type: biochemical; settings: compound 100 µM
Sequence (O55026 whole entry): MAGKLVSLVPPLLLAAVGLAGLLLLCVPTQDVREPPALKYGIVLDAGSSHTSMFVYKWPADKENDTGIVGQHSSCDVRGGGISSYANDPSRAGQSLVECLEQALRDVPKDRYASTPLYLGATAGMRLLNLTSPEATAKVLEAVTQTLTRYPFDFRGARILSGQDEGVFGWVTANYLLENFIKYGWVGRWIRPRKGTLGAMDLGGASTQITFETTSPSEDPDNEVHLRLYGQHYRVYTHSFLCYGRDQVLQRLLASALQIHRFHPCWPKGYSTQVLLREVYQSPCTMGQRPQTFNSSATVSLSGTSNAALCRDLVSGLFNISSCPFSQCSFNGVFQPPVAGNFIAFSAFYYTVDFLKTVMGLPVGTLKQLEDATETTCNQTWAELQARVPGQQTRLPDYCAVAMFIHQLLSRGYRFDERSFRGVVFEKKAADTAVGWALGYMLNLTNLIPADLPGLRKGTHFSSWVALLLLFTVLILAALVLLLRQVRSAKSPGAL
So basically: inhibition at 100 µM at 30% or higher? That is 1. Lower than 30%? That is 0.

>>> label_class("O=C1Nc2ccccc2/C1=N/NC(=S)Nc1ccc([N+](=O)[O-])cc1")
1
>>> label_class("O=C1Nc2ccccc2/C1=N/NC(=S)Nc1ccccc1")
1
>>> label_class("Cc1ccc(NC(=S)N/N=C2\\C(=O)Nc3ccccc32)cc1")
1
>>> label_class("COc1ccc(NC(=S)NNC2=c3ccccc3=NC2=O)cc1")
0
>>> label_class("O=C1Nc2ccccc2/C1=N/NC(=S)Nc1ccc(F)cc1")
0
>>> label_class("O=C1Nc2ccccc2/C1=N/NC(=S)Nc1cccc(Cl)c1")
1
>>> label_class("COc1cccc(NC(=S)N/N=C2\\C(=O)Nc3ccccc32)c1")
0
>>> label_class("COc1ccc(OC)c(NC(=S)N/N=C2\\C(=O)Nc3ccccc32)c1")
0
>>> label_class("O=C1Nc2ccccc2/C1=N/NC(=S)NCc1ccccc1")
1
>>> label_class("O=C1Nc2ccccc2/C1=N/NC(=S)Nc1ccc(Cl)cc1")
1

These measurements were taken from paper PMC7734281.
